Source: patent US20250163162A1

- tgt: T1, IL10Rα and IL2Rγ on human primary cells (CD8 T cells, CD4 T cells, monocytes) (human) (UniProt Q13651)
- T1 sequence (looked up) 1: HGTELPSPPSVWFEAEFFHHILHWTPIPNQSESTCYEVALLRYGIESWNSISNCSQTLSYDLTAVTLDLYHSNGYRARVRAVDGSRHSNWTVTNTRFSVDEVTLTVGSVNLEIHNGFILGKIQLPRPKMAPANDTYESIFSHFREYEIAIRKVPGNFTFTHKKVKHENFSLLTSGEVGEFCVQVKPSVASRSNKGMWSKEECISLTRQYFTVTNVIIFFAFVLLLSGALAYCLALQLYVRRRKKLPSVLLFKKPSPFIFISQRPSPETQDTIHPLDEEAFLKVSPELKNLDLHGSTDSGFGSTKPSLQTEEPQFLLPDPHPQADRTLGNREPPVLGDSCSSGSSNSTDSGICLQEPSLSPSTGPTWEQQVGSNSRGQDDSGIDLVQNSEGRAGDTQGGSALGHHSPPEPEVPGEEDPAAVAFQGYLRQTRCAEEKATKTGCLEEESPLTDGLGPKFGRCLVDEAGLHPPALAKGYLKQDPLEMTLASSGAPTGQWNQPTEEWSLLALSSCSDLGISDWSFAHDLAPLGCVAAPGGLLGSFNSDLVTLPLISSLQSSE
- T1 sequence (looked up) 2: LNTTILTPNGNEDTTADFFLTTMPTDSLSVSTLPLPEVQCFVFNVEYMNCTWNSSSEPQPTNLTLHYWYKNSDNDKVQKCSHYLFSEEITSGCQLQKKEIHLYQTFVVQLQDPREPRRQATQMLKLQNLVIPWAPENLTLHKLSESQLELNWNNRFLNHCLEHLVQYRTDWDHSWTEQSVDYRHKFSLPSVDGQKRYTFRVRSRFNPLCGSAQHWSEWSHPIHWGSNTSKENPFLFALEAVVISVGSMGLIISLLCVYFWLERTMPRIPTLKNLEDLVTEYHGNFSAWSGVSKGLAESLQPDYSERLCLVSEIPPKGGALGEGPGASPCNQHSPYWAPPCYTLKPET
- protocol: cell-based or functional assay
metric: pSTAT3 (MFI) in CD4 T cells at 100 µM
Dear colleague, please return just the value in MFI, with no unit written.

Field request: pSTAT3 (MFI) in CD4 T cells at 100 µM | item: hIL10Ra_VHH14-hIL2Rg_VHH19, no linker, tag his (bispecific antibody, not shown: small tags and cut ends) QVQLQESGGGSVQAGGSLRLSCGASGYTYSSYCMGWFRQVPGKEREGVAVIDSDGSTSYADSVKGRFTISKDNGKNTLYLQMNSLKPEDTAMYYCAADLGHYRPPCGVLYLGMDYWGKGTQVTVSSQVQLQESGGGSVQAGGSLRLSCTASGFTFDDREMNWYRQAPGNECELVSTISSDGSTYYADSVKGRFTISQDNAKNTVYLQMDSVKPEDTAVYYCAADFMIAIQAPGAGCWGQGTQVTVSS
9040
